Reported EC50 by item:
biological target: SST2 (Homo sapiens, UniProt P30874); construct: host or cells: PathHunter CHO-K1 SST2 cells; assay: PathHunter CHO-K1 SST2 Internalization Assay; type: cell-based; settings: PathHunter CHO-K1 SST2 cells; 90 min at 37 C; luminescence; read-out: Internalization EC50
Sequence (P30874 whole entry): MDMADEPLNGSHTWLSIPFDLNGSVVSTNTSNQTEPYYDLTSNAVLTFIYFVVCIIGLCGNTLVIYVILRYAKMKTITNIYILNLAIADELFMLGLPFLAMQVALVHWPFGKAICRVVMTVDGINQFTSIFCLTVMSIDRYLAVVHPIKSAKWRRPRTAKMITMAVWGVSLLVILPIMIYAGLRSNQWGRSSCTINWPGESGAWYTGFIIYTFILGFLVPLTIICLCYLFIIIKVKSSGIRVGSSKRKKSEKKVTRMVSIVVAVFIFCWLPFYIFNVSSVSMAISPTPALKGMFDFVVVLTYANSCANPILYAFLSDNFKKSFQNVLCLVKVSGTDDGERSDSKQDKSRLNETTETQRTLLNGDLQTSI
measurement type: EC50 (nM)

smiles_record=CC[C@H](C)[C@@H]([C@@H](CC(=O)N1CCC[C@H]1[C@H](OC)[C@@H](C)C(=O)N[C@H](C)[C@@H](O)c1ccccc1)OC)N(C)C(=O)[C@@H](NC(=O)[C@H](C(C)C)N(C)C(=O)OCc1ccc(NC(=O)[C@H](CCCNC(N)=O)NC(=O)[C@@H](NC(=O)C[C@@H](N)C(=O)NCCOCCC(=O)NCCNc2ncc(-c3cc(C)cc(F)c3)c(N3CCC(N)CC3)c2-c2nc3ccc(Cl)cc3[nH]2)C(C)C)c(O[C@@H]2O[C@H](C(=O)NCC(=O)O)[C@@H](O)[C@H](O)[C@H]2O)c1)C(C)C system_tested="SST2 (Homo sapiens, UniProt P30874)" endpoint_result=5
smiles_record=CC[C@H](C)[C@@H]([C@@H](CC(=O)N1CCC[C@H]1[C@H](OC)[C@@H](C)C(=O)N[C@H](C)[C@@H](O)c1ccccc1)OC)N(C)C(=O)[C@@H](NC(=O)[C@H](C(C)C)N(C)C(=O)OCc1ccc(NC(=O)[C@H](C)NC(=O)[C@@H](NC(=O)CCOCCn2cc(CCC(=O)NCCNc3ncc(-c4cc(C)cc(F)c4)c(N4CCC(N)CC4)c3-c3nc4ccc(Cl)cc4[nH]3)nn2)C(C)C)c(O[C@@H]2O[C@H](C(=O)O)[C@@H](O)[C@H](O)[C@H]2O)c1)C(C)C system_tested="SST2 (Homo sapiens, UniProt P30874)" endpoint_result=8.8
smiles_record=CC[C@H](C)[C@@H]([C@@H](CC(=O)N1CCC[C@H]1[C@H](OC)[C@@H](C)C(=O)N[C@H](C)[C@@H](O)c1ccccc1)OC)N(C)C(=O)[C@@H](NC(=O)[C@H](C(C)C)N(C)C(=O)OCc1ccc(NC(=O)[C@H](CCCNC(N)=O)NC(=O)[C@@H](NC(=O)[C@@H](CCC(=O)O)NC(=O)CCOCCC(=O)NCCNc2ncc(-c3cc(C)cc(F)c3)c(N3CCC(N)CC3)c2-c2nc3ccc(Cl)cc3[nH]2)C(C)C)cc1C(=O)NCCN)C(C)C system_tested="SST2 (Homo sapiens, UniProt P30874)" endpoint_result=6.5
smiles_record=CC[C@H](C)[C@@H]([C@@H](CC(=O)N1CCC[C@H]1[C@H](OC)[C@@H](C)C(=O)N[C@H](C)[C@@H](O)c1ccccc1)OC)N(C)C(=O)[C@@H](NC(=O)[C@H](C(C)C)N(C)C(=O)OCc1ccc(NC(=O)[C@H](C)NC(=O)[C@@H](NC(=O)CCOCCC(=O)NCCNc2ncc(-c3cc(C)cc(F)c3)c(N3CCC(N)CC3)c2-c2cc3ccc(OC)cc3[nH]2)C(C)C)c(O[C@@H]2O[C@H](C(=O)O)[C@@H](O)[C@H](O)[C@H]2O)c1)C(C)C system_tested="SST2 (Homo sapiens, UniProt P30874)" endpoint_result=19
smiles_record=CC[C@H](C)[C@@H]([C@@H](CC(=O)N1CCC[C@H]1[C@H](OC)[C@@H](C)C(=O)N[C@H](C)[C@@H](O)c1ccccc1)OC)N(C)C(=O)[C@@H](NC(=O)[C@H](C(C)C)N(C)C(=O)OCc1ccc(NC(=O)[C@H](CCCNC(N)=O)NC(=O)[C@@H](NC(=O)c2cc(NCCOCCC(=O)N(C)CC(=O)NCCNc3ncc(-c4cc(C)cc(F)c4)c(N4CCC(N)CC4)c3-c3nc4ccc(Cl)cc4[nH]3)cc(C(=O)NCC(=O)O)c2)C(C)C)cc1)C(C)C system_tested="SST2 (Homo sapiens, UniProt P30874)" endpoint_result=4.7
